Before we begin, note that these IC50 values for Bcl-2-like protein 1 (Homo sapiens) originate from several publications.
All answers are understood in nM, so give the number only.

- query.smiles: "O=C(NS(=O)(=O)c1ccc(N[C@H](CCN2CCOCC2)CSc2ccccc2)c(S(=O)(=O)C(F)(F)F)c1)c1ccc(N2CCN(Cc3cn[nH]c3-c3ccc(Cl)cc3)CC2)cc1"
  result.unit: "nM"
  IC50: 38
- query.smiles: "CC(C)C(=O)N1CCC(CNc2ccc(S(=O)(=O)NC(=O)c3ccc(N4CCN(CC5=C(c6ccc(C(F)(F)F)cc6)CC(C)(C)CC5)CC4)cc3Oc3cnc4[nH]ccc4c3)cc2[N+](=O)[O-])CC1"
  result.unit: "nM"
  IC50: 453
- query.smiles: "Cc1c(C(=O)NCCCN2CCN(C)CC2)c(-c2ccccc2)c(-c2ccc(Cl)cc2)n1C"
  result.unit: "nM"
  IC50: 291000
- query.smiles: "CCCCNC1=C2C(=NC1=O)c1cccc3c(Oc4ccc(C(C)C)cc4)ccc2c13"
  result.unit: "nM"
  IC50: 283
- query.smiles: "CCCCCCNC1=C2C(=NC1=O)c1cccc3c(Sc4ccc(N)cc4)ccc2c13"
  result.unit: "nM"
  IC50: 71

--- query ---
Lab note: measured IC50 of CCCCN(CCCC)C(=O)c1nn(-c2ccc(C(=O)NS(=O)(=O)c3ccc4ccccc4c3)cc2C(=O)N2CCc3ccccc3C2)c(C)c1Cl was 24
